// data source = patent US5208364A

Consider the following molecules; for each one, report its IC50.
# systemTested: rat 5-LPO (Rattus norvegicus)
# Construct: produced in a cell-free extract of rat basophilic leukemia cells; endogenous in cells
# Sequence (P12527 whole entry): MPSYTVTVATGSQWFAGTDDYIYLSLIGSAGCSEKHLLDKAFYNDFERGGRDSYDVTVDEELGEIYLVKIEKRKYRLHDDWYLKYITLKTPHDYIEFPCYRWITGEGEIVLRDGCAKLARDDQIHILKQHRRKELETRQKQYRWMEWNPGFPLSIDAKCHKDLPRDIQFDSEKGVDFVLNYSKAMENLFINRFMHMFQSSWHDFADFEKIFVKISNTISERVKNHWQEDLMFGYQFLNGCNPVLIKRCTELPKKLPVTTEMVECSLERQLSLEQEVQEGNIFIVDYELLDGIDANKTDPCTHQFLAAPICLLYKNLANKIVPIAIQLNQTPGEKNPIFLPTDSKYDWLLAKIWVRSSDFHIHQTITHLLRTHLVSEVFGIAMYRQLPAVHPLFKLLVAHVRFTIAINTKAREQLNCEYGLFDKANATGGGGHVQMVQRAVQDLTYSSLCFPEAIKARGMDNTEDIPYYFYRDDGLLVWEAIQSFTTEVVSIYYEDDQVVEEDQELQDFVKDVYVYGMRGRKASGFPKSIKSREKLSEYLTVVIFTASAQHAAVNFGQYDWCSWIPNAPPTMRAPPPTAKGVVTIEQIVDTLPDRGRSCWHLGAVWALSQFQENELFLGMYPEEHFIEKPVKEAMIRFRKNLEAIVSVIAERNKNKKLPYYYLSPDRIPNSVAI
# measurementDescription: 5-LPO inhibitory activity (5-HETE produced in cell-free extract of rat basophilic leukemia RBL-1 cells, HPLC)
# runParameters: arachidonic acid substrate, 37° C., 5 minutes
Answers are plain numbers, in µM.

CC(C)CCCCCCCCCOC(=O)c1cc(O)ccc1N [Compound IC, Isolauryl 5-hydroxyanthranilate] = 6.3
CC(C)CCCCCCCCOC(=O)c1cc(O)ccc1N [IB, Isoundecyl 5-hydroxyanthranilate] = 4.9

Req: Reported IC50, molecule CC(C)CCCCCCCOC(=O)c1cc(O)ccc1N [IA, Isodecyl 5-hydroxyanthranilate] : ____
Resp: 3.4
